Where do the numbers come from? From ChEMBL document CHEMBL3867467.

Test: in vivo
Conditions: Wistar, rat, iv, 1 umol/kg
Description: Volume of distribution at steady state in Wistar rat at 1 umol/kg, iv through bolus administration by LC/MS/MS analysis
Test Readout: Vd (L/kg)
Respond numerically; units are L/kg and should not be typed.

Incoming: // Vd lookup, key: `C[C@H](NC(=O)C(F)(F)F)[C@H](Oc1ccc2c(cnn2-c2ccc(F)cc2)c1)c1ccccc1`
Outgoing: 14

Incoming: What value of measured Vd is listed for `C[C@]12C=CC(=O)C=C1CC[C@@H]1[C@@H]2[C@@H](O)C[C@@]2(C)[C@H]1CC[C@]2(O)C(=O)CO` ?
Outgoing: 0.63

Incoming: // lookup Vd for `COc1ccc([C@@H](Oc2ccc3c(cnn3-c3ccc(F)cc3)c2)[C@H](C)NC(=O)C2CC2)cn1`
Outgoing: 15
